B1: Calcium-binding protein 2, residues 155 to 219; numbered along this chain, Q9NPB3 (parent)
chain: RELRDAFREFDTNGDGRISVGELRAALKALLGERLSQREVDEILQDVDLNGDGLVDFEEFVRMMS

Variants of: B1
ASSAY NAME: abundance fitness (aPCA) (normalised: wild type 0, dead -1); higher = more abundant; growth selection in yeast, the domain comes from the species named
TEST SETTINGS: Homo sapiens
Quick rule: abundance fitness of at least -0.3 means Satisfied, below that means Not satisfied.

The following variants have reported results that may help.
1) RELRDAFREFATNGDGRISVGELRAALKALLGERLSQREVDEILQDVDLNGDGLVDFEEFVRMMS : Not satisfied
2) RELRDAFREFDTNGDGRISVGELRAALKALLGERLSQREVDEILQDVDLNGDGLVDFFEFVRMMS : Not satisfied
3) RELRDAFREFDTNGDGRISVGELRAALKALLGERLSQREVDEILKDVDLNGDGLVDFEEFVRMMS : Satisfied
4) RELRDAFREFDTNGDGRISVGELRAALKALLFERLSQREVDEILQDVDLNGDGLVDFEEFVRMMS : Satisfied

Query: Test whether the variant `RELRDAFREFDTNGDGRISVGELRAALKALLGERLSQREVYEILQDVDLNGDGLVDFEEFVRMMS` records abundance fitness of -0.3 or higher.
Response: Satisfied

Query: Decide: abundance fitness of `RELRDAFREFDTNGDGRIAVGELRAALKALLGERLSQREVDEILQDVDLNGDGLVDFEEFVRMMS` >= -0.3?
Response: Not satisfied
